Overview of recorded normalized RNA/DNA level with ligand (log10) for various variants
B1: library; a variant is named by its letters at N, in order (parent)
chain: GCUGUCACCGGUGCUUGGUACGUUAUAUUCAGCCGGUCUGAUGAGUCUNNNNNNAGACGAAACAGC

Variants of: B1
Test Method Notes: normalized RNA/DNA level with ligand (relative to sTRSVctl = 100) (log10 (% of sTRSVctl)); HEK293T overexpressing SLC46A1; ligand concentration (+) RNA-Seq: 6 mM; higher = less ribozyme self-cleavage, higher mRNA level
Assay Setup: with (6R,S)-folinic acid; ligand present: yes
No unit in the answer, only the number.

Illustrative cases are given below, each with its answer.
GCUGUCACCGGUGCUUGGUACGUUAUAUUCAGCCGGUCUGAUGAGUCUACUAGCAGACGAAACAGC [ACUAGC]: 2.02
GCUGUCACCGGUGCUUGGUACGUUAUAUUCAGCCGGUCUGAUGAGUCUCGAUUAAGACGAAACAGC [CGAUUA]: 1.99
GCUGUCACCGGUGCUUGGUACGUUAUAUUCAGCCGGUCUGAUGAGUCUCUUUAGAGACGAAACAGC [CUUUAG]: 2

// GCUGUCACCGGUGCUUGGUACGUUAUAUUCAGCCGGUCUGAUGAGUCUUGCGACAGACGAAACAGC [UGCGAC] : normalized RNA/DNA level with ligand (log10) value = 2.02

// GCUGUCACCGGUGCUUGGUACGUUAUAUUCAGCCGGUCUGAUGAGUCUCGAGUCAGACGAAACAGC [CGAGUC] : normalized RNA/DNA level with ligand (log10) value = 2.04

// GCUGUCACCGGUGCUUGGUACGUUAUAUUCAGCCGGUCUGAUGAGUCUAAGGCUAGACGAAACAGC [AAGGCU] : normalized RNA/DNA level with ligand (log10) value = 2.02

// GCUGUCACCGGUGCUUGGUACGUUAUAUUCAGCCGGUCUGAUGAGUCUUGGUAGAGACGAAACAGC [UGGUAG] : normalized RNA/DNA level with ligand (log10) value = 1.94

// GCUGUCACCGGUGCUUGGUACGUUAUAUUCAGCCGGUCUGAUGAGUCUCGAUAUAGACGAAACAGC [CGAUAU] : normalized RNA/DNA level with ligand (log10) value = 2.01

// GCUGUCACCGGUGCUUGGUACGUUAUAUUCAGCCGGUCUGAUGAGUCUCGCGGCAGACGAAACAGC [CGCGGC] : normalized RNA/DNA level with ligand (log10) value = 2.13

// GCUGUCACCGGUGCUUGGUACGUUAUAUUCAGCCGGUCUGAUGAGUCUUUUGCUAGACGAAACAGC [UUUGCU] : normalized RNA/DNA level with ligand (log10) value = 2.01

// GCUGUCACCGGUGCUUGGUACGUUAUAUUCAGCCGGUCUGAUGAGUCUCUACCAAGACGAAACAGC [CUACCA] : normalized RNA/DNA level with ligand (log10) value = 2.03
